run.description: Validation screen for small molecules that induce DNA re-replication in MCF 10A normal breast cells (AID 463097); also: nearly all actives have a fitted effect of over 60% in size
condition.summary: MCF 10A cells, DNA re-replication phenotype imaging; series mostly up to 46.1 µM
Inconclusive results are not listed. Calls of active or inactive are those of the source. Calls follow the shape of the dose curve; as a rule, active = well fitted activation curve with a large enough effect; inconclusive = small, poorly fitted or top-dose-only effect; inactive = flat fitted curve, though single readings scatter.
Labels: 1 (yes) = active, 0 (no) = inactive

                                    compound  qualitative_label
 0                      CCN(CCCl)Cc1ccccc1Br             0 (no)
 1  O=S1(=O)N(CCN2CC=C(c3c[nH]c4cc(F)ccc34)CC2)c2cccc3c2N1CCC3            1 (yes)
 2                O=C(O)c1cc[c]([Hg][Cl])cc1             0 (no)
 3  NC(=O)c1cc(N2CC2)c([N+](=O)[O-])cc1[N+](=O)[O-]             0 (no)
 4                   Cc1[nH]c2ccc(O)cc2c1CCN             0 (no)
 5           C[C@@H]1O[C@H](C[N+](C)(C)C)CS1             0 (no)
 6  CCS(=O)(=O)Nc1cccc(C(=C2CCCCC2)c2cnc[nH]2)c1             0 (no)
 7  CC(C)(C)c1cc(C=C(C#N)C#N)cc(C(C)(C)C)c1O            1 (yes)
 8                             NCCCP(=O)(O)O             0 (no)
 9  NCC(O)c1cc(O)c(O)cc1F (stereo unspecified)             0 (no)
10  C[N+]1(C)CCOC(O)(c2ccc(-c3ccc(C4(O)C[N+](C)(C)CCO4)cc3)cc2)C1 (stereo unspecified)             0 (no)
11  COc1ccc(OC)c(C(O)C(C)N)c1 (stereo unspecified)             0 (no)
12            CN1CCC(c2c[nH]c3ccc(O)cc23)CC1             0 (no)
13                        CP(=O)(O)C1=CCNCC1             0 (no)
14                  c1ccc2c(N3CCNCC3)cccc2c1             0 (no)
15  CC12NC(Cc3ccccc31)c1ccccc12 (stereo unspecified)             0 (no)
16  C[C@]12Cc3cn4c(nc3C=C1CCC1C2CC[C@@]2(C)[C@H]1CC[C@@]2(O)C#N)nc1ccccc14 (stereo partly specified)            1 (yes)
17      CC1OC1P(=O)(O)O (stereo unspecified)             0 (no)
18                    C[N+](C)(C)CCOC(=O)CBr             0 (no)
19  COc1ccc(CNC(=O)/C=C/c2ccc3[nH]cc(CCN(C)C)c3c2)cc1             0 (no)
20  C=CCN1CC[C@]23c4c5ccc(O)c4O[C@H]2/C(=N/NC(=O)c2ccccc2)CC[C@@]3(O)[C@H]1C5             0 (no)
21         CCCN(CCC)[C@H]1CCc2c(F)ccc(O)c2C1             0 (no)
22  NC(CCCCCP(=O)(O)O)C(=O)O (stereo unspecified)             0 (no)
23  OC1CCCCC1N1CCC(c2ccccc2)CC1 (stereo unspecified)             0 (no)
24  CC(N)[C@H](O)c1ccc(O)c(O)c1 (stereo partly specified)             0 (no)
25       CCCN(CCC)CCc1c[nH]c2ccc(C(N)=O)cc12             0 (no)
